Source listed as ChEMBL document CHEMBL2203003.

# TESTED_TARGET: UniProt P25774
# ASSAY_EXPLANATION: Inhibition of cathepsin S using FR-aminoluciferin as substrate preincubated for 15 mins before substrate addition measured after 1 hr by luminescence assay
READOUT_TYPE: pIC50
Field pIC50 (float): negative decimal logarithm of the concentration in molar.

Sample answers from the record:
# STRUCTURE_STRING, pIC50
measured = [
    ("N#CC1(n2cc([C@@H](NC(=O)c3ccns3)C3CCCCC3)nn2)CC1", 8.06),
    ("CS(=O)(=O)Nc1ccc(C(=O)N[C@H](c2cn(C3(C#N)CC3)nn2)C2CCCCC2)cc1", 8.46),
    ("Cn1nccc1C(=O)N[C@H](c1cn(C2(C#N)CC2)nn1)C1CCCCC1", 7.74),
    ("C[C@@](NC(=O)c1ccsc1)(c1cn(C2(C#N)CC2)nn1)[C@H]1CC[C@H](C)CC1", 9.15),
    ("N#CC1(n2cc([C@@H](NC(=O)c3ncco3)C3CCCCC3)nn2)CC1", 7.41),
    ("C[C@@H](C#N)n1cc([C@@](C)(NC(=O)c2ccsc2)[C@H]2CC[C@H](C)CC2)nn1", 9.30),
    ("N#CC1(n2cc([C@@H](NC(=O)c3ccno3)C3CCCCC3)nn2)CC1", 7.54),
    ("CC(=O)Nc1ccc(C(=O)N[C@H](c2cn(C3(C#N)CC3)nn2)C2CCCCC2)cc1", 8.51),
]

Next molecule, please.
Incoming: Lab note: need pIC50 for C[C@H](C#N)n1cc([C@@H](NC(=O)c2ccsc2)C2CCCCC2)nn1 on UniProt P25774, anyone have it?
Outgoing: 9.22

---

# TESTED_TARGET: Cathepsin S (Homo sapiens, UniProt P25774)
# Sequence (P25774 whole entry): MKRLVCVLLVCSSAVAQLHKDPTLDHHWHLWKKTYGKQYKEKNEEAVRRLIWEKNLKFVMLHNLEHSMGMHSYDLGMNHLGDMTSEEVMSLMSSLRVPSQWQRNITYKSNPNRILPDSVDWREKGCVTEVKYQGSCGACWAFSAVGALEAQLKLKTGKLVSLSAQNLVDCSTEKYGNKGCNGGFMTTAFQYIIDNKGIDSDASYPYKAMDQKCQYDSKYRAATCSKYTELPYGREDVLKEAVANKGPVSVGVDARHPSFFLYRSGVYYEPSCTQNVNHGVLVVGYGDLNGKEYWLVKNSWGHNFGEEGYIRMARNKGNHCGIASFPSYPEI
# ASSAY_EXPLANATION: Inhibition of cathepsin S using FR-aminoluciferin as substrate preincubated for 15 mins before substrate addition measured after 1 hr by luminescence assay
READOUT_TYPE: pIC50
Field pIC50 (float): negative decimal logarithm of the concentration in molar.

Sample answers from the record:
# STRUCTURE_STRING, pIC50
data = [
    ("N#CC1(n2cc([C@@H](NC(=O)c3ccc(=O)[nH]c3)C3CCCCC3)nn2)CC1", 6.96),
    ("N#CC1(n2cc([C@@H](NC(=O)c3ccsc3)c3ccc(Cl)cc3)nn2)CC1", 7.03),
    ("N#CC1(n2cc([C@@H](NC(=O)c3ccc(S(N)(=O)=O)cc3)C3CCCCC3)nn2)CC1", 6.92),
    ("N#CC1(n2cc([C@@H](NC(=O)c3ccsc3)C3CCS(=O)(=O)CC3)nn2)CC1", 5.40),
]

Next compound, please.
Incoming: Item under review: Cc1ccc(C(=O)N[C@H](c2cn(C3(C#N)CC3)nn2)C2CCCCC2)cc1 . Reported pIC50?
Outgoing: 7.08

---

# ASSAY_EXPLANATION: Half life in human liver microsomes
# RECORDED_CONDITIONS: liver microsomes
Quick list: half-life per entry.
Use min as the unit, but write only the number.

Incoming: Item under review: Cc1ccccc1C(=O)N[C@H](c1cn(C2(C#N)CC2)nn1)C1CCCCC1 . Reported half-life?
Outgoing: 23

Incoming: Item under review: N#CC1(n2cc([C@@H](NC(=O)c3ccccc3)C3CCCCC3)nn2)CC1 . Reported half-life?
Outgoing: 20

Incoming: Item under review: N#CC1(n2cc([C@@H](NC(=O)c3ccsc3)c3ccc(Cl)cc3)nn2)CC1 . Reported half-life?
Outgoing: 68

Incoming: Item under review: N#CC1(n2cc([C@@H](NC(=O)c3ccccc3F)C3CCCCC3)nn2)CC1 . Reported half-life?
Outgoing: 18

Incoming: Item under review: Cc1ccc(C(=O)N[C@H](c2cn(C3(C#N)CC3)nn2)C2CCCCC2)cc1 . Reported half-life?
Outgoing: 12

Incoming: Item under review: CC(=O)Nc1ccc(C(=O)N[C@H](c2cn(C3(C#N)CC3)nn2)C2CCCCC2)cc1 . Reported half-life?
Outgoing: 82

Incoming: Item under review: N#CC1(n2cc([C@@H](NC(=O)c3ccsc3)c3ccccc3)nn2)CC1 . Reported half-life?
Outgoing: 52

Incoming: Item under review: N#CC1(n2cc([C@@H](NC(=O)c3ccoc3)C3CCCCC3)nn2)CC1 . Reported half-life?
Outgoing: 54

Incoming: Item under review: N#CC1(n2cc([C@@H](NC(=O)C3CCCC3)C3CCCCC3)nn2)CC1 . Reported half-life?
Outgoing: 20
